B1: library; a variant is named by its letters at N, in order (parent)
chain: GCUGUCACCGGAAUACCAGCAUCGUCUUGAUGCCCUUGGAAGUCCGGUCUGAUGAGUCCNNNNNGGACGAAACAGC

variants of: B1; test: FACS-Seq fitted mean relative fluorescence mCherry/BFP without ligand (log10 relative fluorescence); higher = higher reporter protein expression; settings: HEK293T, ligand present: no
Record form. Attribute: FACS-Seq fitted mean (log10). Fill in for each entry.

Quick note, FACS-Seq fitted mean (log10) for "AUUAU" landed at 0.905

Quick note, FACS-Seq fitted mean (log10) for "ACCCG" landed at 0.917

Quick note, FACS-Seq fitted mean (log10) for "AUCGU" landed at 0.902
